# measurementProtocol: ASC/caspase-1 reporter retest in S. cerevisiae at one dose, specificity check for NALP1 project (AID 488857)
# conditionLabel: S. cerevisiae ASC/Caspase-1, beta-galactosidase luminescence, 24 h; at 10 µM
Hit rate of the full screen: of about 1,400 compounds, about 560 (40%) were called active.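 The calls were made as follows: active = mean inhibition over duplicate tests at 10 µM above 50%; inactive = the rest.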 The set was probably picked from earlier hits. The list shows a part of the results.
Outcomes: 1 (yes) (active), 0 (no) (inactive)

CCOC(=O)c1c(NC2OC(=O)c3c2ccc(OC)c3OC)sc(C(=O)OC(C)(C)C)c1C (stereo unspecified) = 1 (yes)
Cc1ccc(C(=O)/C=C/c2cn(CC(O)CN3CCOCC3)c3ccccc23)cc1 (stereo unspecified) = 1 (yes)
CCOC(=O)C1CCCN(C2CC(=O)N(c3cccc(C(F)(F)F)c3)C2=O)C1 (stereo unspecified) = 0 (no)
Cc1cccc(Cn2c(C(C)(C)C)cc3cccnc32)c1 = 0 (no)
CC(C)NC(=O)CCCOc1ccc(Cl)cc1Cl = 0 (no)
COc1ccc(CC(C)N2CCN(Cc3ccccc3)CC2)c(OC)c1 (stereo unspecified) = 0 (no)
O=C(c1ccc(Cl)c([N+](=O)[O-])c1)N(c1ccccn1)c1ccccn1 = 0 (no)
O=[N+]([O-])c1ccc(O)c2ncccc12 = 1 (yes)
COn1c2c(c3c4nonc4ccc31)CCCC2 = 0 (no)
CN(C)c1ccc(/C=N/NC(=O)c2nnn(-c3nonc3N)c2CN(C)c2ccccc2)cc1 = 0 (no)
CCCCCCC1CCC(C(=O)Nn2c(C)nc3ccccc3c2=O)CC1 (stereo unspecified) = 0 (no)

###

# measurementProtocol: ASC/caspase-1 reporter retest in S. cerevisiae at one dose, specificity check for NALP1 project (AID 488857)
# conditionLabel: S. cerevisiae ASC/Caspase-1, beta-galactosidase luminescence, 24 h; at 10 µM; stronger effect = higher value
About 560 (40%) of roughly 1,400 compounds were called active. The set was probably picked from earlier hits. This is one part of the list.
Response key: 1 means inhibition >= 50%; 0 means inhibition < 50%.

CN(C)c1ccc(/C=C/c2ccc3ccccc3[n+]2C)cc1 = 1
COc1cccc(CNc2ccc3c(c2)CCC3)c1 = 0
CC1CCCC(NC(=O)C2CCN(S(=O)(=O)N3CCCCC3)CC2)C1C (stereo unspecified) = 0
CC[n+]1c(/C=C/c2ccc(N(C)C)cc2)ccc2ccccc21 = 1
COc1ccc(CN2CC(C(=O)NCCN3CCN(c4ccccc4F)CC3)CC2=O)cc1 (stereo unspecified) = 0
Cc1ccc(-c2csc3ncnc(Oc4cccc5ccc(C)nc45)c23)cc1 = 1
O=[N+]([O-])c1cccc(CNc2ccc3c(c2)CCC3)c1 = 1
OC(COc1ccc2c(c1)CCC2)CN1CCN(c2ccccc2F)CC1 (stereo unspecified) = 1
O=C(NC1=NCCS1)c1ccc(Cl)s1 = 1

###

# measurementProtocol: ASC/caspase-1 reporter retest in S. cerevisiae at one dose, specificity check for NALP1 project (AID 488857)
# conditionLabel: S. cerevisiae ASC/Caspase-1, beta-galactosidase luminescence, 24 h; at 10 µM
The campaign covered roughly 1,400 compounds. About 560 (40%) were called active.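 How the source made its calls: active means mean inhibition over duplicate tests at 10 µM above 50%; inactive means the rest.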 So high a share suggests a set chosen from earlier hits. The list shows a part of the results.
Outcomes: Yes = active, No = inactive

Cc1ccc(N2C(=N)/C(=C3/Nc4ccccc4S3)C(c3ccccc3)C2=O)cc1 (stereo not drawn) = No
CN(C)c1ccc(N=C/C=C2/N(C)c3ccccc3C2(C)C)cc1 = Yes
O=C1C2C3C=CC(C2C(=O)N1CCCO)C1C2C(=O)N(CCCO)C(=O)C2C31 (stereo not drawn) = No
Cc1ccccc1OCCCSc1nc2ccccc2[nH]1 = Yes
CC(C)(C)c1cc(C(=O)O)n[nH]1 = No
CCOc1ccc(C(=O)Nc2ccc(-c3nc4ccccc4[nH]3)cc2)cc1[N+](=O)[O-] = No
OCCNc1c2ccccc2nc2c(F)c(F)c(F)c(F)c12 = No
Cc1cc(SC#N)cc(C)c1NC(=O)CCl = No
Cc1[nH][nH]c(=O)c1C(c1c(C)[nH][nH]c1=O)c1cn(Cc2ccc(Cl)c(Cl)c2)c2ccccc12 = Yes
CCOC(=O)CCCNC(=O)COC(=O)c1ccc(O)cc1 = No
COC(=O)c1ccc(NC(=O)C(=O)N2CCCC2)cc1 = Yes
Cc1c(N)c(C(C)(C)C)cc(C(C)(C)C)c1[N+](=O)[O-] = No
COc1cc(OC)nc(-n2ncc(Br)c(Br)c2=O)n1 = Yes
Cc1ccccc1N=C/C=C1\N(C)c2ccccc2C1(C)C = No
CCOC(=O)c1ccc(N2C(=O)CC(N3CCCC(C)C3)C2=O)cc1 (stereo not drawn) = No
CC1CCN(c2ccccc2NC(=O)c2ccc(N3CCOCC3)c([N+](=O)[O-])c2)CC1 = No
COc1ccc(C(=O)NC(=S)Nc2ccccc2N2CCCCC2)cc1[N+](=O)[O-] = Yes
Cc1cccc(C)c1NC(=O)CSc1nc2ccccc2c(=O)[nH]1 = No
CCOC(=O)c1c(-c2cccs2)csc1NC(=O)C(C)(C)C = No
COc1ccc(C(=O)NCc2ccccc2)cc1S(=O)(=O)N1CCCc2ccccc21 = No
COc1cccc(/C=N/NC(=O)CCc2c(C)n[nH]c2C)c1 = No
CCCCCOc1ccc(Br)cc1CSC(=N)N = Yes
C=CCCCCc1nc2ccccc2c(=O)n1N = No
